# assayProtocol: Single-dose pharmacokinetics, Beagle dog
# Assay type: in vivo, male)
# testSettings: male, Beagle, dog, plasma; oral 10 mg/kg, free base
valueKind: Tmax (min)

compound: Cc1c(N2CCC3(CC2)CO[C@@H](C)[C@H]3N)nc(C)n(-c2cccc(Cl)c2Cl)c1=O (atropisomer, axis not shown; (Ra)) [Compound (10b)]
valueKind: Tmax
measuredNumber: 49.8

---

# assayProtocol: Phase 1/1B first-in-human study, safety and PK (Cohorts 1-5)
# Assay type: in vivo
# testSettings: human, plasma, oral, 150 mg, 150 mg QD, C2D1, N = 1; read-out: t1/2 (converted)

molecule: Cc1c(N2CCC3(CC2)CO[C@@H](C)[C@H]3N)nc(C)n(-c2cccc(Cl)c2Cl)c1=O (atropisomer, axis not shown; (Ra)) [Compound (10b)]
measurementUnit: h
half-life: 10.1

Data provenance is patent US20250213563A1.
